- system_under_test: surface of J774 A1 macrophages (BAG3 binding partner not identified) (murine)
- assay_text: flow cytometry competition on J774 A1 cells; 625 nM peptide, 14 nM FITC-rBAG3 as competitor
recorded_metric: % of positive cells

Examples with answers:
SSPKSVATEERAAPS [BAG3 peptide 2]    1.21%
DRDPLPPGWEIKIDPQ [BAG3 peptide 1]    0.18%
NPSSMTDTPGNPAAP [BAG3 peptide 4]    0.68%

Attention now turns to another entry.
Entry under review: DKGKKNAGNAEDPHT [BAG3 peptide 3] . Reported % of positive cells?
5.86%
